protocol.text: Tmax in Sprague-Dawley rat at 10 mg/kg, po measured upto 24 hrs by LC-MS/MS analysis
Format: ADME, organism-based
experimental.parameters: in vivo
quantity.kind: Tmax (min)
Give the quantity in min, number only.

// returns reported Tmax for input O=C(C[C@H](CCN1CCCC(F)(F)C1)NC(=O)c1cc(-c2ccccc2C(F)(F)F)n(C2CCCC2)n1)Nc1nnn[nH]1
24

###

protocol.text: Plasma protein binding in rat by LC-MS/MS analysis
Format: ADME, cell-free
experimental.parameters: read-out: PPB (converted)
Listed next: entries and their corresponding fraction unbound.

Please give the measured fraction unbound for this molecule: O=C(C[C@H](CCN1CCCC(F)(F)C1)NC(=O)c1cc(-c2ccccc2C(F)(F)F)n(C2CCCC2)n1)Nc1nnn[nH]1
< 0.006

# input molecule: O=C(C[C@H](CCN1CCCC(F)(F)C1)NC(=O)c1cc(-c2ccccc2C(F)(F)F)n(C2CCCC2)n1)NC1CCC1 ; wanted: its fraction unbound
0.005

###

protocol.text: Cmax in Sprague-Dawley rat at 10 mg/kg, po measured upto 24 hrs by LC-MS/MS analysis
Format: ADME, organism-based
Parameters: dose 10 mg/kg, time < 24 hrs, route po
experimental.parameters: in vivo
quantity.kind: Cmax (µg/mL)
Hi! Could you send only the number? It should be in µg/mL, unit omitted.

Please give the measured Cmax for this molecule: O=C(C[C@H](CCN1CCCC(F)(F)C1)NC(=O)c1cc(-c2ccccc2C(F)(F)F)n(C2CCCC2)n1)Nc1nnn[nH]1
1.58

###

protocol.text: Metabolic stability in Sprague-Dawley rat liver microsomes assessed as parent compound remaining at 1 uM measured after 30 mins in the presence of NADPH by LC-MS analysis
remaining at 0.5 h, 1 µM less than 70% is TRUE; remaining at 0.5 h, 1 µM greater than or equal to 70% is FALSE.

Completed entries (count: 3):
{"columns": ["smiles.record", "category.label"],
 "data": [
  ["O=C(C[C@H](CCN1CCCC(F)(F)C1)NC(=O)c1cc(-c2ccccc2C(F)(F)F)n(C2CCCC2)n1)NC1CCC1", "TRUE"],
  ["COc1cccc(F)c1-c1cc(C(=O)N[C@@H](CCN2CCCCC2)CC(=O)NC2CCC2)nn1C1CCCC1", "FALSE"],
  ["CCc1ccccc1-c1cc(C(=O)N[C@@H](CCN2CCCCC2)CC(=O)NC2CCC2)nn1C1CCCC1", "FALSE"]
]}

Lab log: compare recorded remaining at 0.5 h, 1 µM with 70%; is it strictly lower for O=C(C[C@H](CCN1CCCC[C@H]1C(F)(F)F)NC(=O)c1cc(-c2ccccc2C(F)(F)F)n(C2CCCC2)n1)NC1CCC1 ?
TRUE

Is remaining at 0.5 h, 1 µM strictly under 70% for the entry CN(CC[C@@H](CC(=O)NC1CCC1)NC(=O)c1cc(-c2ccccc2C(F)(F)F)n(C2CCCC2)n1)C1CCCCC1 ?
TRUE

# TODO verify remaining at 0.5 h, 1 µM < 70% strictly for this compound: CC(C)CN(C)CC[C@@H](CC(=O)NC1CCC1)NC(=O)c1cc(-c2ccccc2C(F)(F)F)n(C2CCCC2)n1
TRUE

API: query returns whether the compound falls strictly under 70% in remaining at 0.5 h, 1 µM. Query: CC(F)(F)c1ccccc1-c1cc(C(=O)N[C@@H](CCN2CCCCC2)CC(=O)NC2CCC2)nn1C1CCCC1
FALSE

Consider the compound O=C(C[C@H](CCN1CCCCC1)NC(=O)c1cc(-c2ccccc2C(F)(F)F)n(C2CCCC2)n1)NC1CCC1 . Is its remaining at 0.5 h, 1 µM strictly less than 70%?
FALSE

###

protocol.text: AUC in Sprague-Dawley rat at 10 mg/kg, po measured upto 24 hrs by LC-MS/MS analysis
Type: ADME, organism-based
Design: time < 24 hrs, dose 10 mg/kg, route po
experimental.parameters: in vivo
quantity.kind: AUC at 24 h (ng·h/mL)
Please give a number only; it is taken to be in ng·h/mL.

# lookup: AUC at 24 h of O=C(C[C@H](CCN1CCCC(F)(F)C1)NC(=O)c1cc(-c2ccccc2C(F)(F)F)n(C2CCCC2)n1)Nc1nnn[nH]1
5850

###

EC50 overview
measured.target: Apelin receptor (Homo sapiens)
protocol.text: Agonist activity at human APJ receptor expressed in CHO cells assessed as inhibition of forskolin-induced cAMP accumulation measured after 30 mins by TR-FRET based LANCE cAMP assay
Format: functional, cell-based
# unit: nM | format: bare number

Some solved entries appear below for comparison.
{"columns": ["smiles.record", "quantity.kind", "unit.of.measurement", "reading"],
 "data": [
  ["Cc1cnn(CC[C@@H](CC(=O)NC2CCC2)NC(=O)c2cc(-c3ccccc3C(F)(F)F)n(C3CCCC3)n2)c1", "EC50", "nM", 54],
  ["COc1cccc(F)c1-c1cc(C(=O)N[C@@H](CCN2CCCCC2)CC(=O)NC2CCC2)nn1C1CCCC1", "EC50", "nM", 5.6],
  ["O=C(C[C@H](CCN1CCOCC1)NC(=O)c1cc(-c2ccccc2C(F)(F)F)n(C2CCCC2)n1)NC1CCC1", "EC50", "nM", 28]
]}

Query: EC50; subject: O=C(C[C@H](CCN1CCCC[C@H]1C(F)(F)F)NC(=O)c1cc(-c2ccccc2C(F)(F)F)n(C2CCCC2)n1)NC1CCC1
6

# EC50 lookup, item CC(C)CN(C)CC[C@@H](CC(=O)NC1CCC1)NC(=O)c1cc(-c2ccccc2C(F)(F)F)n(C2CCCC2)n1
0.35

Quick one: EC50 of CN(CC[C@@H](CC(=O)NC1CCC1)NC(=O)c1cc(-c2ccccc2C(F)(F)F)n(C2CCCC2)n1)C1CCCCC1 ?
2

Need EC50 of O=C(C[C@H](CCN1CCCCC1)NC(=O)c1cc(-c2ccccc2C2CC2)n(C2CCCC2)n1)NC1CCC1 , thanks.
6.4

Suppose we examine the compound O=C(C[C@H](CCN1CCCCC1)NC(=O)c1cc(-c2ccccc2C(F)(F)F)n(C2CCCC2)n1)NC1CCC1 ; what EC50 value has been reported?
2.4

So what's the measured EC50 for this one? CCc1ccccc1-c1cc(C(=O)N[C@@H](CCN2CCCCC2)CC(=O)NC2CCC2)nn1C1CCCC1
7

Fill in: EC50 of O=C(C[C@H](CCN1CCCC(F)(F)C1)NC(=O)c1cc(-c2ccccc2C(F)(F)F)n(C2CCCC2)n1)Nc1nnn[nH]1 is ___
6.5

Entry under review: O=C(C[C@H](CCc1ccc(F)cc1)NC(=O)c1cc(-c2ccccc2C(F)(F)F)n(C2CCCC2)n1)NC1CCC1 . Reported EC50?
15

Dear colleague, I am looking for the recorded EC50 of the following compound: O=C(C[C@H](CCN1CCCC(F)(F)C1)NC(=O)c1cc(-c2ccccc2C(F)(F)F)n(C2CCCC2)n1)NC1CCC1
3.4

I'd like to know its EC50. The compound in question is CC(F)(F)c1ccccc1-c1cc(C(=O)N[C@@H](CCN2CCCCC2)CC(=O)NC2CCC2)nn1C1CCCC1
4.3

###

protocol.text: Oral bioavailability in Sprague-Dawley rat at 10 mg/kg measured upto 24 hrs by LC-MS/MS analysis
Assay type: ADME, organism-based
experimental.parameters: in vivo
quantity.kind: bioavailability

Field request: bioavailability | item: O=C(C[C@H](CCN1CCCC(F)(F)C1)NC(=O)c1cc(-c2ccccc2C(F)(F)F)n(C2CCCC2)n1)Nc1nnn[nH]1
> 95%

###

measured.target: Apelin receptor (Homo sapiens, UniProt P35414)
Sequence (P35414 whole entry): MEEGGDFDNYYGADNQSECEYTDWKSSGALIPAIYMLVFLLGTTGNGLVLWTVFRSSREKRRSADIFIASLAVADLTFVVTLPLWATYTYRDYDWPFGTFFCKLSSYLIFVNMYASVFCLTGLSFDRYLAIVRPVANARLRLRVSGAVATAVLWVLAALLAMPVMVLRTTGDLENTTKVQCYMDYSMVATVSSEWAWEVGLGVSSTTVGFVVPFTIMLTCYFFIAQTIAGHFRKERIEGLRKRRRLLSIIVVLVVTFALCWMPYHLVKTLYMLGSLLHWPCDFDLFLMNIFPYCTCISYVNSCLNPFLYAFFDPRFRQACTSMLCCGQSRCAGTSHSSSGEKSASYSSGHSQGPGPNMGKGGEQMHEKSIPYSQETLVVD
protocol.text: Agonist activity at human AGTRL1 expressed in CHO-K1 cells assessed as induction of beta-arrestin 2 recruitment incubated for 90 mins by PathHunter assay
Type: functional, cell-based
Measured pEC50 accompanies every entry in the list below.
The meaning of pEC50 here: minus log10 of the concentration in molar units.

{"columns": ["smiles.record", "reading"],
 "data": [
  ["O=C(C[C@H](CCN1CCCC(F)(F)C1)NC(=O)c1cc(-c2ccccc2C(F)(F)F)n(C2CCCC2)n1)NC1CCC1", 8.27]
]}

# input for lookup
Query pEC50 on Apelin receptor (Homo sapiens, UniProt P35414) for O=C(C[C@H](CCN1CCCC(F)(F)C1)NC(=O)c1cc(-c2ccccc2C(F)(F)F)n(C2CCCC2)n1)Nc1nnn[nH]1
6.33

###

Items are presented alongside their recorded efflux ratio.
protocol.text: Efflux ratio of apparent permeability from basolateral to apical side over apical to basolateral side in human Caco-2 cells by LC-MS/MS analysis
Format: ADME, cell-based
Quick one: just the number, no unit, thanks!

Field: example entries. Status: answers known.
{"columns": ["smiles.record", "efflux ratio"],
 "data": [
  ["O=C(C[C@H](CCN1CCCC(F)(F)C1)NC(=O)c1cc(-c2ccccc2C(F)(F)F)n(C2CCCC2)n1)NC1CCC1", 1],
  ["O=C(C[C@H](CCN1CCCCC1)NC(=O)c1cc(-c2ccccc2C(F)(F)F)n(C2CCCC2)n1)NC1CCC1", 304],
  ["O=C(C[C@H](CCN1CCCC(F)(F)C1)NC(=O)c1cc(-c2ccccc2C(F)(F)F)n(C2CCCC2)n1)Nc1nnn[nH]1", 1]
]}

Consider the compound shown here: Cc1cnn(CC[C@@H](CC(=O)NC2CCC2)NC(=O)c2cc(-c3ccccc3C(F)(F)F)n(C3CCCC3)n2)c1 What is its recorded efflux ratio?
3

All figures here come from ChEMBL document CHEMBL5143709.
